Where these numbers come from: the supplement of paper PMC7877785

TEST_PROTOCOL: self-splicing fitness, log relative to wild type (ln ratio); higher = more splicing; Tetrahymena group I intron in knt gene, E. coli kanamycin selection, DiMSum; sequences stand for … in CUCUCU…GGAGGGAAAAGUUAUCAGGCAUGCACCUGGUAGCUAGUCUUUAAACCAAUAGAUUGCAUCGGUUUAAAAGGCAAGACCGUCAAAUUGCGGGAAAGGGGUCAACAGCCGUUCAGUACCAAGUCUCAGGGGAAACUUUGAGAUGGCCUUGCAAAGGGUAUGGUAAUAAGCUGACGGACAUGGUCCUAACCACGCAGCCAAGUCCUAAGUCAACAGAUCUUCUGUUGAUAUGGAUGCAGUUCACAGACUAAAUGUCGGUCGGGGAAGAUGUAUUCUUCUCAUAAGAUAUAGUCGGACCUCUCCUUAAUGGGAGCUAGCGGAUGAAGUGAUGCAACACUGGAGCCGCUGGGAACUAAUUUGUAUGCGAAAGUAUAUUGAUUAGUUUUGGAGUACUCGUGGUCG;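 further: selection with 25 µg/mL kanamycin versus none on LB agar overnight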
ASSAY_CONTEXT: 37 °C
# label = 1 (yes) if self-splicing fitness (ln) >= -2 else 0 (no)

Problem: Is self-splicing fitness (ln) for "UUCGAGCAAUAUUACGCUUA" at or above -2?
Solution: 1 (yes)

Problem: Is self-splicing fitness (ln) for "AGUCAGCAAUAUUACGUCCG" at or above -2?
Solution: 1 (yes)

Problem: Is self-splicing fitness (ln) for "UCGGAGCAAUAUUACGUGCC" at or above -2?
Solution: 0 (no)

Problem: Is self-splicing fitness (ln) for "GACAAGCAAUAUUACGUCGG" at or above -2?
Solution: 0 (no)

Problem: Is self-splicing fitness (ln) for "AACGAGCAAUAUUACGACGU" at or above -2?
Solution: 1 (yes)

Problem: Is self-splicing fitness (ln) for "UGAGAGCAAUAUUACGAAAG" at or above -2?
Solution: 0 (no)

Problem: Is self-splicing fitness (ln) for "CAACAGCAAUAUUACGGUAU" at or above -2?
Solution: 1 (yes)

Problem: Is self-splicing fitness (ln) for "AACUAGCAAUAUUACGCCUU" at or above -2?
Solution: 1 (yes)

Problem: Is self-splicing fitness (ln) for "CUGUAGCAAUAUUACGGUGU" at or above -2?
Solution: 0 (no)

Problem: Is self-splicing fitness (ln) for "UCCGAGCAAUAUUACGGCGC" at or above -2?
Solution: 0 (no)

Problem: Is self-splicing fitness (ln) for "CUCUAGCAAUAUUACGCUUC" at or above -2?
Solution: 0 (no)

Problem: Is self-splicing fitness (ln) for "GAUUAGCAAUAUUACGGGCU" at or above -2?
Solution: 1 (yes)

Problem: Is self-splicing fitness (ln) for "CCCCAGCAAUAUUACGGCCG" at or above -2?
Solution: 1 (yes)

Problem: Is self-splicing fitness (ln) for "GCGUAGCAAUAUUACGUCCA" at or above -2?
Solution: 1 (yes)

----------
Consider the following sequences; for each one, report its self-splicing fitness (ln).
TEST_PROTOCOL: self-splicing fitness, log relative to wild type (ln ratio); higher = more splicing; Tetrahymena group I intron in knt gene, E. coli kanamycin selection, DiMSum; sequences stand for … in CUCUCU…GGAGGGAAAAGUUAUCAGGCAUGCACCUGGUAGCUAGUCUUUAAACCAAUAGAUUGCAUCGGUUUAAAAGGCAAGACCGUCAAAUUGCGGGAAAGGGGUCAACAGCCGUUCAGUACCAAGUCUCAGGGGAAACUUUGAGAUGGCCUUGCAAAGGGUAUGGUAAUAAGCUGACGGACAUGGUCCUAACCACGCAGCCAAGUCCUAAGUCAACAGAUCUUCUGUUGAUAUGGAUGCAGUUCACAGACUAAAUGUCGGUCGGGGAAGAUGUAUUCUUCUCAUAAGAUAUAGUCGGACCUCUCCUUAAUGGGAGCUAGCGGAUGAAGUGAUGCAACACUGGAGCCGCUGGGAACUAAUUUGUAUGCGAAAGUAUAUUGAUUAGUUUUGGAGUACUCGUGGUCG
ASSAY_CONTEXT: 37 °C
// no unit, no text: just the number

The recorded self-splicing fitness (ln) for entry "AUUUAGCAAUAUUACGUGUA" equals -1.5

The recorded self-splicing fitness (ln) for entry "ACUAAGCAAUAUUACGUUUU" equals -1.54

The recorded self-splicing fitness (ln) for entry "AUAGAGCAAUAUUACGGACU" equals -1.65

The recorded self-splicing fitness (ln) for entry "UAGAAGCAAUAUUACGCACC" equals -1.44

The recorded self-splicing fitness (ln) for entry "CCGUAGCAAUAUUACGGCGC" equals -1.48

The recorded self-splicing fitness (ln) for entry "UCGUAGCAAUAUUACGGUAG" equals -3.06

The recorded self-splicing fitness (ln) for entry "UACGAGCAAUAUUACGCUUA" equals -0.594

The recorded self-splicing fitness (ln) for entry "AAUUAGCAAUAUUACGUAUA" equals -1.32

The recorded self-splicing fitness (ln) for entry "UGGUAGCAAUAUUACGCCCU" equals 0.287

The recorded self-splicing fitness (ln) for entry "GAGUAGCAAUAUUACGUCGU" equals -0.572

The recorded self-splicing fitness (ln) for entry "CCUGAGCAAUAUUACGUAAG" equals -1.6

The recorded self-splicing fitness (ln) for entry "CUUUAGCAAUAUUACGCAAA" equals -1.34

The recorded self-splicing fitness (ln) for entry "ACCGAGCAAUAUUACGCACA" equals -1.67

The recorded self-splicing fitness (ln) for entry "AUCUAGCAAUAUUACGCUCA" equals -0.0187

The recorded self-splicing fitness (ln) for entry "CACUAGCAAUAUUACGUGGG" equals -3.1

The recorded self-splicing fitness (ln) for entry "CAUAAGCAAUAUUACGUUGA" equals -2.85
